target: FGFR3 (UniProt P22607); test: phosphorylation enrichment, bacterial display (enrichment ratio); higher = better substrate or ligand; peptides without Tyr show the background
Sequence (P22607 whole entry, looked up): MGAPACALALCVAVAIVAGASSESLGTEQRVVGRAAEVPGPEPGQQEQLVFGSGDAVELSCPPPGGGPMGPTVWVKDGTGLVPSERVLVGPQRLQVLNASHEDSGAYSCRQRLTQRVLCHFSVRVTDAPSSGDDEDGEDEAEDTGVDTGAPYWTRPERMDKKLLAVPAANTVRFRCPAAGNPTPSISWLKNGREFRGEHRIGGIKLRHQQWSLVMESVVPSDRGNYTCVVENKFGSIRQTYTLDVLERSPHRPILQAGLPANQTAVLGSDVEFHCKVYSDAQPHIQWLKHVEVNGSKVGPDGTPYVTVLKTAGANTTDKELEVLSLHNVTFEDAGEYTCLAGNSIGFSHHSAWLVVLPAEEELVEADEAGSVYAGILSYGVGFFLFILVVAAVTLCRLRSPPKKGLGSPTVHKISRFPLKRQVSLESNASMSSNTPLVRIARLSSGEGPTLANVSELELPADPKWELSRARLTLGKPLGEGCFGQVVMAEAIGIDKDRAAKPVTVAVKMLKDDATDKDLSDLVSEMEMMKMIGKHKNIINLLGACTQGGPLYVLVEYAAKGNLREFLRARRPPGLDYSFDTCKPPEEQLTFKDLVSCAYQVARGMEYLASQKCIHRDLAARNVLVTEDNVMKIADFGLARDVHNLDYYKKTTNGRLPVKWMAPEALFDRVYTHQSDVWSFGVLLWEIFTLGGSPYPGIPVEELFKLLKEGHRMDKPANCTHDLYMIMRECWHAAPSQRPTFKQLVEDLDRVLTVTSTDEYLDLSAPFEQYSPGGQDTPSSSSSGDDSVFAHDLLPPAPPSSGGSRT
I'd appreciate it if you could supply phosphorylation enrichment values for the items below.
# respond with the number and nothing more

// lookup phosphorylation enrichment for LVLIKYLPEWT [PSEN1_Y240_F237L]
1.08

// lookup phosphorylation enrichment for ANAFIYVVQLP [L1CAM_Y420_YF]
0.855

// lookup phosphorylation enrichment for EKMWTYMPSAE [GRIA4_Y695_R697P]
0.623

// lookup phosphorylation enrichment for LFLACYCIGGG [UBD_Y161]
1.29

// lookup phosphorylation enrichment for QMVGMYASFFM [AVPR2_Y124_S127F_YF]
1.5

// lookup phosphorylation enrichment for LSRDVYEEDSY [RET_Y900]
0.968

// lookup phosphorylation enrichment for ARTNEYKIIRT [INA_Y87]
0.452

// lookup phosphorylation enrichment for KVPELYEIHTE [BCR_Y554_K558T]
0.68

// lookup phosphorylation enrichment for VYSTDCYRVGG [NTRK2_Y706_Y706C]
0.769

// lookup phosphorylation enrichment for FCVVRYCWLRR [MPZ_Y181_Y177C]
0.709

// lookup phosphorylation enrichment for KSVVTYSPTTG [ITGB3BP_Y32_I30V]
0.442

// lookup phosphorylation enrichment for IMNLLYHVVGW [GBA_Y412_T408M]
5.38

// lookup phosphorylation enrichment for CTTIHYDFMCN [TP53_Y234_N235D_YF]
0.764

// lookup phosphorylation enrichment for SAGSSYSISVI [PAX5_Y179_G183V]
0.752

// lookup phosphorylation enrichment for NTGNYYDLYGG [PTPN11_Y63_D61N]
12.6

// lookup phosphorylation enrichment for GTFVIYVRFSG [FLNB_Y1687_G1691S_YF]
0.569

// lookup phosphorylation enrichment for GDPTEYFITAI [IGSF22_Y501_S503I_YF]
1.11

// lookup phosphorylation enrichment for CGPLLYGLVHQ [PRKCG_Y122_S119P]
0.723

// lookup phosphorylation enrichment for TLLERYGMIEI [ACSF3_Y355_T358I]
0.644

// lookup phosphorylation enrichment for HDRREYSRFEK [ITGB7_Y758_Y753H]
0.718

// lookup phosphorylation enrichment for LHSEAYLKYIE [PBRM1_Y1610]
0.743

// lookup phosphorylation enrichment for HKLSFNEFDFE [BTK_Y40_Y40N_YF]
0.882

// lookup phosphorylation enrichment for SYCYRYRCAAW [SUMF1_Y344_R349W]
0.508

// lookup phosphorylation enrichment for YTGDIYSNSNL [LZTR1_Y141]
0.616

// lookup phosphorylation enrichment for LTYHMYADPNF [SOS1_Y618]
3.01

// lookup phosphorylation enrichment for KDFETYQPFQN [CTNND2_Y1157_YF]
0.603

// lookup phosphorylation enrichment for GRIHSYRGHLW [VHL_Y112_R107G]
0.438

// lookup phosphorylation enrichment for LLQEWYMIISR [HUWE1_Y4066_R4063Q]
2.45

// lookup phosphorylation enrichment for CGQDPYIRELG [UROS_Y19]
0.707

###

molecular target: c-Src SH2; test: SH2 binding enrichment of the phosphorylated peptide, bacterial display (enrichment ratio); higher = better substrate or ligand; peptides without Tyr show the background;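 note: peptide library displayed on the E. coli surface as eCPX fusions, selected cells deep-sequenced, score is each peptide's frequency after selection divided by its frequency in the input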
Property measured: SH2 binding enrichment

// lookup SH2 binding enrichment for GEDPIYVTLEG [RTKtide_2018]
0.718

// lookup SH2 binding enrichment for EFGSGYPNDPK [RNASEH2A_Y210_D205E_YF]
0.376

// lookup SH2 binding enrichment for ETGNLYIAKVE [CNTN4_Y180]
0.276

// lookup SH2 binding enrichment for SLNEVYTKNKT [MSH2_Y563_E562V]
0.456

// lookup SH2 binding enrichment for GGSDCYGSLRP [MYLK_Y846_R845C]
0.36

// lookup SH2 binding enrichment for GTVRDYPDFSP [ANXA3_Y15]
0.439

// lookup SH2 binding enrichment for AVIADYMFWLG [SPATA16_Y290_M286V]
1

// lookup SH2 binding enrichment for NFRTIYVNANE [KCNH2_Y475_T474I]
3.07

// lookup SH2 binding enrichment for KKGMIYGGGGG [PSME1_Y249_T244K]
0.666

// lookup SH2 binding enrichment for SASQEYHIVKK [PDZD2_Y557]
0.792

// lookup SH2 binding enrichment for RLEKEYFDQHF [NPC1_Y394]
0.604

// lookup SH2 binding enrichment for MGGSVYFSFPD [HIKESHI_Y55_YF]
0.662

// lookup SH2 binding enrichment for KILGRYYETSS [PAX2_Y72_G76S]
1.62

// lookup SH2 binding enrichment for TQFWLYFAGNL [SLC25A5_Y112]
0.509

// lookup SH2 binding enrichment for LFLACYCIGGG [UBD_Y161]
0.876

// lookup SH2 binding enrichment for GTFVIYVRFSG [FLNB_Y1687_G1691S_YF]
0.442

// lookup SH2 binding enrichment for IGHHAYGDQFR [IDH1_Y135_R132H_YF]
0.487

// lookup SH2 binding enrichment for EEKKKYFDTKI [CASP5_Y103_YF]
0.462

// lookup SH2 binding enrichment for VYSTDCYRVGG [NTRK2_Y706_Y706C]
0.601

// lookup SH2 binding enrichment for VGEGPYLLSDL [ABCC12_Y7_I9L]
0.361

// lookup SH2 binding enrichment for RGLQVYHRRNA [LRP2_Y2010]
0.486

// lookup SH2 binding enrichment for LRRREYQRQDF [PRKRIP1_Y90_YF]
0.397

// lookup SH2 binding enrichment for EKNANYKEGTF [CLRN1_Y171_I168N_YF]
0.503

// lookup SH2 binding enrichment for KACKHYLTKRT [ZBTB5_Y118_T121K]
1.72

// lookup SH2 binding enrichment for EVVGRYSGHNA [MLH1_Y183_V185G]
0.448

// lookup SH2 binding enrichment for VITTLYIGFLG [KCNQ1_Y267_L262V]
0.615

// lookup SH2 binding enrichment for LFEDRYLLGPS [ASS1_Y87_T91P_YF]
0.552

// lookup SH2 binding enrichment for WIPIQCPIISE [NOG_Y222_Y222C]
0.513

// lookup SH2 binding enrichment for RRIHCYRGHLW [VHL_Y112_S111C]
0.583
